pIC50: −log10 of the molar value.
The entries that follow carry pIC50 values tested on ROCK2 (Homo sapiens), drawn from several published reports.

Molecule | pIC50
COc1ccc(Cn2c(C)nn(-c3ccc(-c4cn[nH]c4)cc3)c2=O)cc1F | 5.70 to 6.60
COc1cccc(OC2CCN(c3ccc(-c4n[nH]c(=O)c5ccccc45)cc3)C2=O)c1 (stereo not shown) | 7.00 to 8.00
COc1cccc(CN2C(=O)N(c3ccc(-c4cn[nH]c4)cc3)CC23CCN(CC(N)=O)CC3)c1 | > 8.52
COc1cc(CN2CCN(c3ccc(-c4cn[nH]c4)c(C(F)(F)F)c3)C2=O)ccc1F | 5.70 to 6.70

* * *

pIC50: −log10 of the molar value.
// cross-study collection: pIC50 for ROCK2 (Homo sapiens, UniProt O75116)

Compound | Tested On | pIC50
Cn1c(C(=O)N2CC(F)(F)C2)cc2c1CN(c1nc(F)cc(Nc3ccc(-c4cn[nH]c4)cc3)n1)CC2 | ROCK2 (Homo sapiens, UniProt O75116) | 6.30 to 7.30
Cc1nn(-c2ccc(-c3cn[nH]c3)cc2)c(=O)n1Cc1ccccc1Cl | ROCK2 (Homo sapiens, UniProt O75116) | 7.30 to 8.30
COc1cc(Cn2cnn(-c3ccc(-c4cn[nH]c4)cc3)c2=O)cc(OC)c1 | ROCK2 (Homo sapiens, UniProt O75116) | 5.70 to 6.60
O=C(NC1CC2(C1)CC(c1n[nH]c(=O)c3ccccc13)C2)N1CCc2ccc(C(F)(F)F)cc21 (stereo not shown) | ROCK2 (Homo sapiens, UniProt O75116) | 7.82 to 8.29
COc1nnc(N2CCc3cc(C(=O)N4CC(F)(F)C4)n(C)c3C2)nc1Nc1ccc(-c2cn[nH]c2)cc1 | ROCK2 (Homo sapiens, UniProt O75116) | 6.30 to 7.30
O=C(O)c1cc2n(c1)CCN(c1nccc(Nc3ccc(-c4cn[nH]c4)cc3)n1)C2 | ROCK2 (Homo sapiens, UniProt O75116) | < 5.35
[H][C@]1(c2n[nH]c(=O)c3ccccc32)C[C@]2(C[C@@H](NC(=O)c3nc4ccc(Cl)cc4[nH]3)C2)C1 (stereo partly shown) | ROCK2 (Homo sapiens, UniProt O75116) | 7.00 to 7.82

* * *

pIC50: −log10 of the molar value.
Listing of pIC50 toward ROCK2 (Homo sapiens, UniProt O75116), each taken from a published source.

Compound | pIC50
O=C(c1ccc2c(cnn2-c2nccc(Nc3ccc(-c4cn[nH]c4)cc3)n2)c1)N1CC(F)(F)C1 | 5.35 to 6.30
Cn1c(C(=O)N2CC(F)(F)C2)cc2c1CN(c1ncc(C(F)(F)F)c(Nc3ccc(-c4cn[nH]c4)cc3)n1)CC2 | 6.30 to 7.30
COc1cc(-n2nc(Nc3ccc4[nH]ncc4c3Cl)cc2C)ccc1OCC(=O)NC(C)C | 5.52 to 6.52
[H][C@]1(c2n[nH]c(=O)c3ccccc32)C[C@]2(C[C@@H](NC(=O)c3cnc4cc(C(C)(C)O)ccn34)C2)C1 (stereo partly drawn) | 7.00 to 7.82
COc1cc(-n2nc(C)n(C(C)c3ccccc3)c2=O)ccc1-c1cn[nH]c1 (stereo not drawn) | 7.30 to 8.30
Cn1c(C(=O)N2CC(F)(F)C2)cc2c1CN(c1nc(Nc3ccc(-c4cn[nH]c4)cc3)nc(C3COC3)n1)CC2 | 6.30 to 7.30
